Reference source: ChEMBL document CHEMBL5528006

Listed next: entries and their corresponding selectivity ratio.
protocol_details: Selectivity index, ratio of IC50 for dark toxicity in human Eca-109 cells to IC50 for phototoxicity against human Eca-109 cells under 730 nm laser irradiation at light dose of 12 J/cm^2
Assay type: cell-based
condition_description: Eca-109 cells, read-out: Ratio IC50
Lab note: write the figure by itself, no unit.

I have this compound here, `COc1cc(-c2c3nc(cc4[nH]c(c(-c5cc(OC)c(OCCCCC(=O)O)c(OC)c5)c5nc(cc6[nH]c2c2cc7ccccc7cc62)-c2cc6ccccc6cc2-5)c2cc5ccccc5cc42)-c2cc4ccccc4cc2-3)cc(OC)c1OCCCCC(=O)O` , and I need its recorded selectivity ratio.
1.69

// next record `O=C(O)CCCCOc1cc(OCCCCC(=O)O)cc(-c2c3nc(cc4[nH]c(c(-c5cc(OCCCCC(=O)O)cc(OCCCCC(=O)O)c5)c5nc(cc6[nH]c2c2cc7ccccc7cc62)-c2cc6ccccc6cc2-5)c2cc5ccccc5cc42)-c2cc4ccccc4cc2-3)c1`
8.15
